Measured Metric: melting point

- Br.CCc1ccc(CN2CCN(C(=O)c3cc4cc(Oc5ccc(NC(=O)c6ccc(C(F)(F)F)cc6)cn5)ccc4n3C)CC2)cc1 [Example 390]: 239 to 241 °C
- COc1ccc(CN2CCN(C(=O)c3cc4cc(Oc5ccc(NC(=O)c6ccc(C(F)(F)F)cc6)cn5)ccc4n3C)CC2)cn1.O=C(O)/C=C\C(=O)O [Example 348]: 135 to 138 °C
- CC(C)CN1CCN(C(=O)c2cc3cc(Oc4ccc(N(C)C(=O)c5ccc(C(F)(F)F)cc5)cn4)ccc3n2C)CC1 [Example 562]: 163 to 164 °C

Please look at this compound and report its melting point: Br.Cn1c(C(=O)N2CCN(Cc3ccc4c(c3)OCO4)CC2)cc2cc(Oc3ccc(NC(=O)c4ccc(C(F)(F)F)cc4)cn3)ccc21 [Example 8] 240 to 244 °C

Please look at this compound and report its melting point: CN(C(=O)c1ccc(C(F)(F)F)cc1)c1cnc(Oc2ccc3c(c2)cc(C(=O)N2CCN(Cc4ccc(C#N)cc4)CC2)n3C)nc1.O=C(O)/C=C\C(=O)O [Example 383] 154 to 156 °C

Please look at this compound and report its melting point: Cl.Cn1c(C(=O)N2CCN(Cc3ccc(OCC(F)(F)F)cc3)CC2)cc2ccc(Oc3ccc(NC(=O)c4ccc(C(F)(F)F)nc4)cn3)cc21 195.4 °C

Please look at this compound and report its melting point: Br.Br.CCOc1ccc(CN2CCN(C(=O)c3cc4cc(Oc5ccc(NC(=O)c6ccc(Cl)c(Cl)c6)cn5)ccc4n3C)CC2)nc1 [Example 378] 218 to 220 °C

Please look at this compound and report its melting point: Br.Cn1c(C(=O)N2CCN(Cc3ccc(OC(F)(F)F)cc3)CC2)cc2ccc(Oc3ccc(NC(=O)c4ccc(Cl)c(Cl)c4)cn3)cc21 [Example 264] 261.6 to 264.7 °C

Please look at this compound and report its melting point: CCCc1ccc(CN2CCN(C(=O)c3cc4cc(Oc5ccc(N(C)C(=O)c6ccc(C(F)(F)F)cc6)cn5)ccc4n3C)CC2)cc1.O=C(O)/C=C\C(=O)O [Example 411] 132 to 134 °C

---

Overview of reported melting point across a group of compounds:

Please review the entries below; each comes with its answer.
• COc1ccccc1CN1CCN(C(=O)c2cc3cc(Oc4ccc(N(C)C(=O)c5ccc(C(F)(F)F)cc5)cn4)ccc3n2C)CC1.O=C(O)C(=O)O = 140 to 142 °C
• Br.CN(C(=O)c1ccc(OC(F)F)cc1)c1ccc(Oc2ccc3cc(C(=O)N4CCN(Cc5ccc(OCC(F)(F)F)cc5)CC4)n(C)c3c2)nc1 = 203.8 to 205.6 °C
• Br.Cn1c(C(=O)N2CCN(Cc3ccc(C#N)cc3)CC2)cc2ccc(Oc3ccc(NC(=O)c4ccc(Cl)c(Cl)c4)cn3)cc21 = 263.9 to 267.4 °C
• Br.Cn1c(C(=O)N2CCN(Cc3ccc4c(c3)OCO4)CC2)cc2cc(Oc3ccc(NC(=O)c4ccc(Cl)c(Cl)c4)cn3)ccc21 = 264 to 269 °C
• Br.Cn1c(C(=O)N2CCN(Cc3ccc(OCCF)cc3)CC2)cc2ccc(Oc3ccc(NC(=O)c4ccc(Cl)c(Cl)c4)cn3)cc21 = 232.4 to 234.2 °C

Below: the item to evaluate.
Please look at this compound and report its melting point: Br.Cn1c(C(=O)N2CCN(Cc3ccc(OCC(F)(F)F)cc3)CC2)cc2ccc(Oc3ccc(NC(=O)c4ccc(Cl)c(Cl)c4)cn3)cc21 251.8 to 253.5 °C

Just for reference, patent US8551999B2 is where these values come from.
